# Test system: alpha-synuclein aggregation in SK—N—SH cells
# TEST: Alpha-synuclein aggregation after glucose deprivation in SK-N-SH alpha-synuclein stable clones (immunocytochemistry)
# Type: cell-based, human
# ASSAY CONDITIONS: Homo sapiens; SK-N-SH cells; read-out: EC50 in reducing alpha-synuclein aggregation
TEST READOUT: EC50 (µM)
The reply should be a number in µM, with the unit left off.

COMPOUND | EC50, µM
COC(=O)[C@@H](c1ccc(C)cc1)C1CCCCN1.Cl (stereo partly drawn) [I-threo, hydrochloride] | 0.431

Attention now turns to another entry.
State its EC50: COC(=O)C(c1ccccc1)C1CCCCN1 (centres unmarked) [MPH, Methylphenidate, reference compound]
37.3
